Kindly supply the reported Pigweed plant response rating (0 to 100 scale) values for the records listed here.
Test system: pigweed
Assay: Test A preemergence
Format: in vivo, Amaranthus retroflexus
Conditions: 31 g ai/ha
Lab note: jot the number down without any unit.

Problem: Assign Pigweed plant response rating (0 to 100 scale) to the following record: N#Cc1cccc(Oc2ncc(Cl)cn2)c1-n1cc(OCC(F)F)cn1 [Compound 99]
Solution: 100

Problem: Note down Pigweed plant response rating (0 to 100 scale) recorded for Fc1cccc(Oc2ncc(Cl)cn2)c1-n1cc(C2CCCC2)nn1 [Compound 106]
Solution: 10

Problem: Return reported Pigweed plant response rating (0 to 100 scale). Input compound: Fc1cnc(Oc2cccc(Cl)c2-n2cc(OCC(F)(F)F)cn2)nc1 [Compound 109]
Solution: 100

Problem: Supply reported Pigweed plant response rating (0 to 100 scale) belonging to this compound: FCc1cccc(Oc2ncc(F)cn2)c1-n1cc(C(F)(F)F)cn1 [Compound 118]
Solution: 100

---

System: pigweed
Test: Test A postemergence
Assay type: in vivo, Amaranthus retroflexus
Details: 31 g ai/ha, 0 to 100 scale, 0 no effect, 100 complete control
PARAMETER MEASURED: Plant response rating, Pigweed
Form: value (number only, do not type unit).

Problem: Fill in reported Plant response rating, Pigweed for this entry: N#Cc1cccc(Oc2ncc(Cl)cn2)c1-n1cc(OCC(F)F)cn1
Solution: 100

Problem: Hello, please tell me recorded Plant response rating, Pigweed for this one: FC(F)(F)COc1cnn(-c2c(Br)cccc2Oc2ncc(Cl)cn2)c1
Solution: 80

Problem: Could you please provide reported Plant response rating, Pigweed for FCc1cccc(Oc2ncc(Cl)cn2)c1-n1cc(C(F)(F)F)cn1 ? Thanks!
Solution: 70

Problem: Give Plant response rating, Pigweed for the following compound: NC(=O)c1cccc(Oc2ncc(Cl)cn2)c1-n1cc(C(F)(F)F)cn1
Solution: 0

Problem: Give recorded Plant response rating, Pigweed. FCc1cccc(Oc2ncc(Br)cn2)c1-n1cc(C(F)(F)F)cn1
Solution: 60

Problem: Report measured Plant response rating, Pigweed; entry is CC(C)Oc1cnn(-c2c(Br)cccc2Oc2ncc(F)cn2)c1
Solution: 10

Problem: Answer with the recorded Plant response rating, Pigweed for the compound listed here: COc1cnn(-c2c(F)cccc2Oc2ncc(Cl)cn2)c1
Solution: 10

Problem: Tell us which Plant response rating, Pigweed value is on record for FC(F)c1cccc(Oc2ncc(Cl)cn2)c1-n1cncc1Br
Solution: 70

---

Test system: Italian ryegrass
Test: Test C postemergence
Type: in vivo, Lolium multiflorum
Details: 16 g ai/ha, postemergence; 0 is no effect, 100 is complete control
PARAMETER MEASURED: Plant response rating (0 to 100), Ryegrass, Italian

Problem: Quote Plant response rating (0 to 100), Ryegrass, Italian reported for N#Cc1cn(-c2c(Br)cccc2Oc2ncc(Cl)cn2)nn1 please.
Solution: 5

Problem: Specify Plant response rating (0 to 100), Ryegrass, Italian for CCCOc1cnn(-c2c(C#N)cccc2Oc2ncc(Cl)cn2)c1 and stop.
Solution: 0

Problem: Answer with the recorded Plant response rating (0 to 100), Ryegrass, Italian of Clc1cnc(Oc2cccc(Br)c2-n2cc(Br)nn2)nc1 only.
Solution: 0

Problem: Item Fc1cccc(Oc2ncc(Cl)cn2)c1-n1cc(C2CC2)nn1 : provide Plant response rating (0 to 100), Ryegrass, Italian
Solution: 0

Problem: Provide measured Plant response rating (0 to 100), Ryegrass, Italian value, entry: FCc1cccc(Oc2ncc(Br)cn2)c1-n1cc(C(F)(F)F)cn1
Solution: 0

---

Task for the reader: assign each of the following molecules its reported Barnyardgrass plant response rating.
Test system: barnyardgrass
Test: Test C preemergence
Assay type: in vivo, Echinochloa crus-galli
Conditions: 16 g ai/ha, preemergence; scale 0 to 100 (0 no effect, 100 complete control)
From the text: […]
Write no unit; give the number alone.

Problem: # assay system barnyardgrass: give Barnyardgrass plant response rating of FC(F)(F)c1cnn(-c2c(Cl)cccc2Oc2ncc(Cl)cn2)c1 [Compound 167]
Solution: 5

Problem: Name the value of Barnyardgrass plant response rating reported for CCOc1cnn(-c2c(C#N)cccc2Oc2ncc(F)cn2)c1 [Compound 89] when tested on barnyardgrass.
Solution: 5

Problem: Provide Barnyardgrass plant response rating, system barnyardgrass, entry Fc1cccc(Oc2ncc(Cl)cn2)c1-n1cc(OCC(F)(F)F)cn1 [Compound 270]
Solution: 0

Problem: Please respond with reported Barnyardgrass plant response rating (system barnyardgrass) for FCc1cn(-c2c(F)cccc2Oc2ncc(Cl)cn2)nn1 [Compound 154] .
Solution: 5

---

Test system: blackgrass
Experiment: Test A postemergence
Assay type: in vivo, Alopecurus myosuroides
Details: 125 g ai/ha, 0 to 100 scale where 0 is no effect and 100 is complete control
Please provide measured Plant response rating, Blackgrass for the entries that follow.

Problem: # return recorded Plant response rating, Blackgrass for entry Fc1cccc(Oc2ncc(Cl)cn2)c1-n1cc(C2CCCC2)nn1 [Compound 106]
Solution: 50

Problem: Give Plant response rating, Blackgrass for the following compound: N#Cc1cnn(-c2c(C#N)cccc2Oc2ncc(I)cn2)c1 [Compound 91]
Solution: 0

Problem: Tell us which Plant response rating, Blackgrass value is on record for Fc1cnc(Oc2cccc(Cl)c2-n2cc(OCC(F)(F)F)cn2)nc1 [Compound 109]
Solution: 70

Problem: Identify the reported Plant response rating, Blackgrass for the following entry. N#Cc1cccc(Oc2ncc(F)cn2)c1-n1cc(I)cn1 [Compound 86]
Solution: 90

---

Test system: green foxtail
Experiment: Test E preemergence
Type: in vivo, Setaria viridis
Details: 125 g ai/ha, scale 0 to 100, 0 no effect, 100 complete control
PARAMETER MEASURED: Plant response rating, Foxtail, Green
Respond numerically, and do not add a unit to the figure.

Problem: Give the measured Plant response rating, Foxtail, Green for N#Cc1cccc(Oc2ncc(Cl)cn2)c1-n1cc(C(F)(F)F)cn1 [Compound 58]
Solution: 100

Problem: Please list Plant response rating, Foxtail, Green recorded for the molecule N#Cc1cccc(Oc2ncc(F)cn2)c1-n1cc(I)cn1 [Compound 86]
Solution: 75

Problem: Supply Plant response rating, Foxtail, Green value. Item: Fc1cccc(Oc2ncc(Cl)cn2)c1-n1cc(I)cn1 [Compound 179]
Solution: 100

Problem: Check the records and state Plant response rating, Foxtail, Green for N#Cc1cccc(Oc2ncc(Br)cn2)c1-n1cc(C(F)(F)F)cn1 [Compound 59]
Solution: 100

Problem: In one line, give reported Plant response rating, Foxtail, Green of the entry N#Cc1cnn(-c2c(C#N)cccc2Oc2ncc(F)cn2)c1 [Compound 111] .
Solution: 90

Problem: Fill in Plant response rating, Foxtail, Green for record FCc1cccc(Oc2ncc(Cl)cn2)c1-n1cc(Cl)cn1 [Compound 250]
Solution: 90

Problem: Recall and state the measured Plant response rating, Foxtail, Green for Clc1cnc(Oc2ccccc2-n2cc(Br)cn2)nc1 [Compound 7] .
Solution: 75

Problem: Supply reported Plant response rating, Foxtail, Green belonging to this molecule: N#Cc1cccc(Oc2ncc(F)cn2)c1-n1cc(Cl)cn1 [Compound 73]
Solution: 80

---

Consider the following molecules; for each one, report its Lambsquarters plant response rating.
Test system: lambsquarters
Experiment: Test E preemergence
Format: in vivo, Chenopodium album
Conditions: 62 g ai/ha, scale 0 to 100 (0 no effect, 100 complete control)

Problem: Assign Lambsquarters plant response rating to the following record: FC(F)(F)COc1cnn(-c2ccccc2Oc2ncc(Cl)cn2)c1 [Compound 138]
Solution: 100

Problem: Quickly give me recorded Lambsquarters plant response rating for N#Cc1cccc(Oc2ncc(Br)cn2)c1-n1cc(I)cn1 [Compound 88]
Solution: 100

Problem: Provide measured Lambsquarters plant response rating value, entry: Fc1cccc(Oc2ncc(Cl)cn2)c1-n1cc(I)cn1 [Compound 179]
Solution: 95

Problem: Please give measured Lambsquarters plant response rating of the following entry: N#Cc1cccc(Oc2ncc(Br)cn2)c1-n1cc(C(F)(F)F)cn1 [Compound 59]
Solution: 100

Problem: Please look at this molecule and report its Lambsquarters plant response rating: N#Cc1cccc(Oc2ncc(F)cn2)c1-n1cc(I)cn1 [Compound 86]
Solution: 100

Problem: Output measured Lambsquarters plant response rating for this item: FC(F)(F)c1cnn(-c2ccccc2Oc2ncc(Br)cn2)c1 [Compound 18]
Solution: 98

Problem: Name the recorded Lambsquarters plant response rating of the molecule listed here: N#Cc1cnn(-c2c(C#N)cccc2Oc2ncc(F)cn2)c1 [Compound 111]
Solution: 98

Problem: Please give measured Lambsquarters plant response rating of the following entry: FC(F)(F)c1cnn(-c2c(Cl)cccc2Oc2ncc(Cl)cn2)c1 [Compound 167]
Solution: 100

Problem: Give a short answer stating reported Lambsquarters plant response rating for N#Cc1cccc(Oc2ncc(F)cn2)c1-n1cc(Cl)cn1 [Compound 73] .
Solution: 98

---

Tested on: wheat
Assay: Test A postemergence
Assay type: in vivo, Triticum aestivum
Settings: Triticum aestivum, post-emergence, 240 h, 125 g ai/ha, 0 to 100 scale where 0 is no effect and 100 is complete control, read-out: Plant response rating, Wheat
PARAMETER MEASURED: plant injury at 125 g/ha (%)
Unit % implied. Number only.

Problem: Recall and state the measured plant injury at 125 g/ha for FC(F)(F)c1cnn(-c2ccccc2Oc2ncc(Br)cn2)c1 [Compound 18] .
Solution: 50

Problem: Fill in plant injury at 125 g/ha for record N#Cc1cccc(Oc2ncc(Cl)cn2)c1-n1cc(C(F)(F)F)cn1 [Compound 58]
Solution: 90

Problem: Dear colleague, please send me the reported plant injury at 125 g/ha for FC(F)(F)c1ccn(-c2ccccc2Oc2ncc(Cl)cn2)n1 [Compound 2] when you can.
Solution: 0

Problem: Supply reported plant injury at 125 g/ha belonging to this compound: Fc1cnc(Oc2ccccc2-n2cc(Br)cn2)nc1 [Compound 10]
Solution: 0
